- Test system: HCI03 (cells of an ER-positive luminal breast cancer xenograft);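 also: PDX cells carrying CMV promoter-driven luciferase, viability read as total photon flux per second by IVIS imaging following D-luciferin, vehicle control 0.1% DMSO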
- assay summary: cell viability (% of vehicle); higher = less cytotoxic
- measurement setup: 10 µM; 72 h
Counter-ions that a name gives are not always drawn.
observable: cell viability
Lab note: jot down the number only; don't add units.

Item under review: COc1ccc(C[C@H](N)C(=O)N[C@@H]2[C@H](O)[C@H](n3cnc4c(N(C)C)ncnc43)O[C@@H]2CO)cc1.Cl.Cl [Puromycin dihydrochloride] . Reported cell viability?
58.6

Entry CCCNC(C)C(=O)Nc1ccccc1C.Cl (stereo not given) [Prilocaine hydrochloride] has what cell viability?
117

Consider the molecule Nc1nc(=O)c2ncn(CCC(CO)CO)c2[nH]1 and give its measured cell viability.
140

Please look up its cell viability: O=S(=O)([O-])CCSSCCS(=O)(=O)[O-].[Na+].[Na+]
150

Param item = CC(C)(C)NCC(O)COc1cccc2c1CCC(O)=N2.Cl (stereo not given) [Carteolol HCl] ; retrieve measured cell viability.
144

# get_value(readout='cell viability', item= CC12CCC3c4ccc(O)cc4CCC3C1CC(O)C2O (stereo not given) )
118

Param item = CCNC1CC(N)C(OC2OC(CN)=CCC2N)C(O)C1OC1OCC(C)(O)C(NC)C1O.CCNC1CC(N)C(OC2OC(CN)=CCC2N)C(O)C1OC1OCC(C)(O)C(NC)C1O.O=S(=O)(O)O.O=S(=O)(O)O.O=S(=O)(O)O.O=S(=O)(O)O.O=S(=O)(O)O (stereo not given) [Netilmicin Sulfate] ; retrieve measured cell viability.
125

Quick one: cell viability of O=c1c(-c2ccc(O)cc2)coc2cc(O)ccc12 ?
155

Form field: reported cell viability of COC(=O)C12CCC(C)(C)CC1C1C(=O)C=C3C4(C)C=C(C#N)C(=O)C(C)(C)C4CCC3(C)C1(C)CC2 (stereo not given)
33.9

What value of cell viability has been reported for the following molecule? Cc1ccccc1C(OCCN(C)C)c1ccccc1.O=C(O)CC(O)(CC(=O)O)C(=O)O (stereo not given) [Orphenadrine Citrate]
130

Entry under review: Br.CN(C)CCC[C@]1(c2ccc(F)cc2)OCc2cc(C#N)ccc21 [Citalopram hydrobromide] . Reported cell viability?
138

Requested read-out: cell viability. Entry: NCC1CCC(C(=O)O)CC1 (stereo not given)
116

Please look up its cell viability: COc1ccc(-c2ccc3cc(C(=O)O)ccc3c2)cc1C12CC3CC(CC(C3)C1)C2 [Adapalene sodium salt]
81.9

Need cell viability, item NCCS(=O)(=O)O
119

cell viability lookup needed for CN(C)CCCN1c2ccccc2CCc2ccc(Cl)cc21.Cl [Clomipramine HCl] , thanks.
108

Which cell viability is reported for this molecule? CN1CCc2nc(C(=O)NC3CC(C(=O)N(C)C)CCC3NC(=O)C(=O)Nc3ccc(Cl)cn3)sc2C1.Cc1ccc(S(=O)(=O)O)cc1.O (stereo not given) [Edoxaban tosylate monohydrate]
92.1

// query cell viability value for entry CCC(=O)OC1(C(=O)CCl)C(C)CC2C3CCC4=CC(=O)C=CC4(C)C3(F)C(O)CC21C (stereo not given) [Clobetasol propionate]
125

Need cell viability, item COC1=CC=C(/C(C2=CC=C(OC)C=C2)=C(Cl)/C3=CC=C(OC)C=C3)C=C1
125

What does the record list as cell viability for O=C(O)c1ccccc1O ?
114

Fill blank: measured cell viability of the molecule CS(=O)(=O)c1ccc(C(O)C(CF)NC(=O)C(Cl)Cl)cc1 (stereo not given) is ____.
118

Would you mind telling me what cell viability value was observed for CNS(=O)(=O)Cc1ccc2[nH]cc(CCN(C)C)c2c1.O=C(O)CCC(=O)O [Sumatriptan Succinate] ?
110

Param item = CCOc1ccc(NC(C)=O)cc1 ; retrieve measured cell viability.
136

What value of cell viability has been recorded for this entry: COC(=O)C1=C(C)NC(C)=C(C(=O)OC)C1c1ccccc1[N+](=O)[O-]
130

Quick check: cell viability of CO[C@H]1O[C@@H]2OC3(C)CC[C@H]4[C@H](C)CC[C@@H]([C@H]1C)[C@@]24OO3 ?
121

Which cell viability value belongs to CC(=O)C1CCC2C3CC=C4CC(O)CCC4(C)C3CCC12C (stereo not given) ?
126

Name the reported cell viability value associated with the molecule Cc1ccc(=O)n(-c2ccccc2)c1
99.8

Need cell viability, item CC(c1cc2ccccc2s1)N(O)C(N)=O (stereo not given)
136

Any idea what its cell viability is? The molecule is O=NN(CCCl)C(=O)NC1CCCCC1
115

If you can, please state the reported cell viability value of CC(C)(C)c1cc(NC(=O)Nc2ccc(-c3cn4c(n3)sc3cc(OCCN5CCOCC5)ccc34)cc2)no1 .
112

Any idea what its cell viability is? The molecule is Br.Br.Br.Br.Br.Cc1cc(N2CCN(C3CNC(C(=O)N4CCSC4)C3)CC2)n(-c2ccccc2)n1.Cc1cc(N2CCN(C3CNC(C(=O)N4CCSC4)C3)CC2)n(-c2ccccc2)n1 (stereo not given) [Teneligliptin hydrobromide]
95.2
